Reported Population Healthy Nuclei (%) values follow for various molecules
System: Fibroblast
assay-summary: Multiplex assay against human fibroblast
Assay type: toxicity, cell-based
assay-setup: 24 h, 10 µM, compound concentration 10 uM, replicate 2
Kindly answer with a numeric value in %, unit omitted.

The examples below pair each entry with its known result.
COc1cc(Nc2ncc3c(n2)-c2ccc(Cl)cc2C(c2c(F)cccc2OC)=NC3)ccc1C(=O)O [ALISERTIB] = 36
CN1CCN(c2ccc(Nc3c4ccccc4nc4ccccc34)cc2)CC1.Cl.Cl.O = 27
CCC(=O)OCC(=O)[C@@]1(OC(=O)CC)[C@@H](C)C[C@H]2[C@@H]3CCC4=CC(=O)C=C[C@]4(C)[C@@]3(Cl)[C@@H](O)C[C@@]21C [BECLOMETHASONE DIPROPIONATE] = 40

Item: CCCCC[C@H](O)/C=C/[C@H]1[C@H](O)CC(=O)[C@@H]1CCCCCCC(=O)O [ALPROSTADIL] | Population Healthy Nuclei (%): 45

Recorded Population Healthy Nuclei (%) (molecule C[C@@H]1CC(=O)Nc2cccc(-c3ccc4c(c3)c(-c3cnn(C)c3)nn4C)c2N1 ): 57

----------
Form field: Population Fragmented Nuclei (%) (one value per entry).
Tested on: HEK-293T
assay-summary: Multiplex assay against HEK293T
Assay type: toxicity, cell-based
assay-setup: human, 48 h, 1 µM, compound concentration 1 uM, replicate 1
Expressed in %, but write only the number.

The examples below pair each entry with its known result.
Cc1cc(=O)n(C)c2cc(N3C(=O)CC[C@H](NS(=O)(=O)CC(C)C)[C@H]3c3ccc(Cl)cc3)ccc12 = 14
COCCn1c(C)c(C)s/c1=N\C(=O)C1C(C)(C)C1(C)C = 13
CCc1nn2c(C)cc(C)nc2c1Cc1ccc(-c2nnc(C3CCNCC3)o2)cc1 = 12
COc1cc(Nc2ncc3c(n2)-c2ccc(Cl)cc2C(c2c(F)cccc2OC)=NC3)ccc1C(=O)O [ALISERTIB] = 14
C[C@@H]1CC(=O)Nc2cccc(-c3ccc4c(c3)c(-c3cnn(C)c3)nn4C)c2N1 = 11
CCC(=O)OCC(=O)[C@@]1(OC(=O)CC)[C@@H](C)C[C@H]2[C@@H]3CCC4=CC(=O)C=C[C@]4(C)[C@@]3(Cl)[C@@H](O)C[C@@]21C [BECLOMETHASONE DIPROPIONATE] = 11
Cc1nn(C)c2nc(NNC(=O)Nc3cc(Cl)nc(Cl)c3)cc(C(C)C)c12 = 12
Cc1cc(O)c(-c2ccc([C@@H](C)CN(C)C)cc2)c2c1[nH]c(=O)c1sccc12 = 13
N[C@](CC1c2ccccc2Oc2ccccc21)(C(=O)O)[C@H]1C[C@@H]1C(=O)O = 11
Cc1ccc(OCC(O)C(C)NC(C)C)c2c1CCC2.Cl (stereo not given) = 12

Entry Nc1nc(-c2ccco2)c2cnn(Cc3ccccc3F)c2n1 ; Population Fragmented Nuclei (%) = 12

Memo: COc1cc(C(=O)N2CC[C@@H](O)[C@@H](N)C2)cc2nc(-c3cc4ccccc4n3CC3CC3)n(C)c12.Cl , reported Population Fragmented Nuclei (%): 9

The measured Population Fragmented Nuclei (%) associated with C[C@H](NC(=O)CNC(=O)c1cccc(Cl)c1)c1ccccc1 reads 13

For this compound ( Nc1nc(CC(=O)Nc2ccc(CCNC[C@H](O)c3ccccc3)cc2)cs1 [MIRABEGRON] ), measured Population Fragmented Nuclei (%) is 13

Recorded Population Fragmented Nuclei (%) (compound CCCCCCNC(=O)Nc1ccc(S(=O)(=O)Nc2ccc(CCNC[C@H](O)COc3ccc(O)cc3)cc2)cc1 [L-755507] ): 12

Entry COC(c1ccccc1)(c1ccccc1)[C@H](Oc1nc(C)cc(C)n1)C(=O)O [AMBRISENTAN] , Population Fragmented Nuclei (%) reported as 17

response.value for Cl.Cl.OCCOCCN1CCN(C(c2ccccc2)c2ccc(Cl)cc2)CC1 (stereo not given) [HYDROXYZINE HYDROCHLORIDE] (field: Population Fragmented Nuclei (%)) = 14

For reference, reported Population Fragmented Nuclei (%) for O=c1ccc2ccc(OCCCCN3CCN(c4cccc5sccc45)CC3)cc2[nH]1 [BREXPIPRAZOLE] stands at 9

response.value for O=C(NCCNCC(O)COc1ccc(O)cc1)N1CCOCC1.O=C(NCCNCC(O)COc1ccc(O)cc1)N1CCOCC1.O=C(O)/C=C/C(=O)O (stereo not given) [XAMOTEROL FUMARATE] (field: Population Fragmented Nuclei (%)) = 14

Memo: S=C(NCCCc1c[nH]cn1)NCCCN(Cc1ccc(Cl)c(Cl)c1)c1ccc(Br)cn1 , reported Population Fragmented Nuclei (%): 14

Population Fragmented Nuclei (%) measured on CN1CCC(C(=O)c2cccc(NC(=O)c3c(F)cc(F)cc3F)n2)CC1 = 11

So, COc1ccc2[nH]c(I)c(CCNC(C)=O)c2c1 [IODOMELATONIN] ? Its Population Fragmented Nuclei (%) was 12

So for COc1cc2nc(N3CCN(C(=O)COc4c(OC)cccc4C(C)C)CC3)nc(N)c2cc1OC.Cl.Cl , the logged Population Fragmented Nuclei (%) turned out to be 16

Entry CC(C)C[C@H](CO)Nc1nc(S[C@@H](C)c2ccccc2)nc2nc(N)sc12 [AZD-8797] — recorded Population Fragmented Nuclei (%) = 15

// Population Fragmented Nuclei (%) lookup, compound = CCn1c(-c2nc3cc(C(=O)N4CCCC(N)C4)ccc3n2C)cc2ccccc21.Cl (stereo not given) , result: 12

----------
Tested on: Fibroblast
assay-summary: Multiplex assay against human fibroblast
Type: toxicity, cell-based
assay-setup: 48 h, 1 µM, compound concentration 1 uM, replicate 2
# maps each entry to its Population Membrane Permeable-Phenotype (%)
Give the quantity in %, number only.

Check out these entries, answers already filled in.
COCCCN1CCC(NC(=O)c2cc(Cl)c(N)c3c2OCC3)CC1 [PRUCALOPRIDE] = 3
Nc1nc(CC(=O)Nc2ccc(CCNC[C@H](O)c3ccccc3)cc2)cs1 = 4
Cc1ccc(OCC(O)C(C)NC(C)C)c2c1CCC2.Cl (stereo unspecified) = 5
COc1cc2nc(N3CCN(C(=O)COc4c(OC)cccc4C(C)C)CC3)nc(N)c2cc1OC.Cl.Cl = 8
O=c1ccc2ccc(OCCCCN3CCN(c4cccc5sccc45)CC3)cc2[nH]1 = 1

Lab book: Population Membrane Permeable-Phenotype (%) of Cc1nn(C)c2nc(NNC(=O)Nc3cc(Cl)nc(Cl)c3)cc(C(C)C)c12 noted as 2

Item: CN1CCN(c2ccc(Nc3c4ccccc4nc4ccccc34)cc2)CC1.Cl.Cl.O | Population Membrane Permeable-Phenotype (%): 1

get_value(item= CCCCCCNC(=O)Nc1ccc(S(=O)(=O)Nc2ccc(CCNC[C@H](O)COc3ccc(O)cc3)cc2)cc1 , readout=Population Membrane Permeable-Phenotype (%)) returns 1

Lookup result for Cc1c(Cc2ccc3ccccc3n2)c2cc(F)ccc2n1CC(=O)O ; measured Population Membrane Permeable-Phenotype (%): 2

Just so you know, measured Population Membrane Permeable-Phenotype (%) for COc1ccc2[nH]c(I)c(CCNC(C)=O)c2c1 came out at 5

Note to self: Population Membrane Permeable-Phenotype (%) recorded for O=c1nc2[nH]c3ccccc3nc-2c(=O)[nH]1 was 9

----------
Test system: U2OS
assay-summary: Multiplex assay against U2OS
Type: toxicity, cell-based
assay-setup: human, 12 h, 10 µM, compound concentration 10 uM, replicate 2
assay-endpoint: Population Tubulin-Different-Phenotype (%)
Numeric answer plus unit only.

Here's what some known entries look like.
S=C(NCCCc1c[nH]cn1)NCCCN(Cc1ccc(Cl)c(Cl)c1)c1ccc(Br)cn1 = 89%
Cc1cc(=O)n(C)c2cc(N3C(=O)CC[C@H](NS(=O)(=O)CC(C)C)[C@H]3c3ccc(Cl)cc3)ccc12 = 60%
COc1cc(C(=O)N2CC[C@@H](O)[C@@H](N)C2)cc2nc(-c3cc4ccccc4n3CC3CC3)n(C)c12.Cl = 94%

The reported value for Nc1nc(CC(=O)Nc2ccc(CCNC[C@H](O)c3ccccc3)cc2)cs1 [MIRABEGRON] in terms of Population Tubulin-Different-Phenotype (%) is 1%

----------
Tested on: HEK-293T
assay-summary: Multiplex assay against HEK293T
Format: toxicity, cell-based
assay-setup: human, 48 h, 10 µM, compound concentration 10 uM, replicate 2
Non-standard residues stand in square brackets, D forms with d. Residues, ends and D or L forms follow the SMILES beside them.
Lab note: class by Population Mitochondria Different-Phenotype (%), see band A = under 30%, band B = from 30% up to 80%, band C = 80% and over

Field: example entries. Status: answers known.
CC(F)(F)CN1CCOc2c(nn(-c3ccccc3Cl)c2-c2ccc(Cl)cc2)C1=O = band B
CCn1c(-c2nc3cc(C(=O)N4CCCC(N)C4)ccc3n2C)cc2ccccc21.Cl (configuration not stated) = band B
Cc1nn(C)c2nc(NNC(=O)Nc3cc(Cl)nc(Cl)c3)cc(C(C)C)c12 = band B
CN(C)C(=O)Cn1cc(-c2ccc(-c3nnc4ccccn34)cc2)cn1 = band A
Cc1cc(=O)n(C)c2cc(N3C(=O)CC[C@H](NS(=O)(=O)CC(C)C)[C@H]3c3ccc(Cl)cc3)ccc12 = band B
COCCCN1CCC(NC(=O)c2cc(Cl)c(N)c3c2OCC3)CC1 [PRUCALOPRIDE] = band B
CCC(=O)OCC(=O)[C@@]1(OC(=O)CC)[C@@H](C)C[C@H]2[C@@H]3CCC4=CC(=O)C=C[C@]4(C)[C@@]3(Cl)[C@@H](O)C[C@@]21C [BECLOMETHASONE DIPROPIONATE] = band C
CC(C)C[C@@H]1NC(=O)[C@@H](C(C)C)NC(=O)[C@@H]2CCCN2C(=O)[C@@H](CC(=O)O)NC(=O)[C@@H](Cc2c[nH]c3ccccc23)NC1=O [BQ-123] (cyclo(L[dW][dD]P[dV])) = band A

Exam item: Exercise: read the entry CN1CCN(c2ccc(Nc3c4ccccc4nc4ccccc34)cc2)CC1.Cl.Cl.O and state which class it falls under.
Marked response: band C

Exam item: Lab log: Cc1cc(O)c(-c2ccc([C@@H](C)CN(C)C)cc2)c2c1[nH]c(=O)c1sccc12 — assign Population Mitochondria Different-Phenotype (%) category
Marked response: band C

Exam item: Input C[C@H](NC(=O)CNC(=O)c1cccc(Cl)c1)c1ccccc1 ; output its category
Marked response: band A

Exam item: // bin(item) where item = CSc1nc(NC2CCCC2)c([N+](=O)[O-])c(NC2CCCC2)n1 [GS-39783]
Marked response: band B

Exam item: Please let me know in which category the item O=C(NCCNCC(O)COc1ccc(O)cc1)N1CCOCC1.O=C(NCCNCC(O)COc1ccc(O)cc1)N1CCOCC1.O=C(O)/C=C/C(=O)O (configuration not stated) [XAMOTEROL FUMARATE] belongs.
Marked response: band A

Exam item: Looking at O=c1ccc2ccc(OCCCCN3CCN(c4cccc5sccc45)CC3)cc2[nH]1 [BREXPIPRAZOLE] , which class would you pick?
Marked response: band C

Exam item: Using the reported Population Mitochondria Different-Phenotype (%), which band applies to COc1cc2nc(N3CCN(C(=O)c4ccco4)CC3)nc(N)c2cc1OC.Cl [PRAZOSIN HYDROCHLORIDE] ?
Marked response: band A

The reported measurements were obtained from ChEMBL document CHEMBL5058577.
